The reported numbers originate from patent US20240277637A1.

test system: human bronchial epithelial cells; assay: Clonogenic cell survival assay, bronchial epithelial cells with PDGF-AB (Example 4); format: cell-based; conditions: 5.00 uM; 10 ng/ml PDGF-AB; 14 days

molecule | units.text | Clonogenic Survival Assay (percent)
COc1cc(CNC(=O)CCCCCCc2ccccc2)ccc1O | % | 96
COc1ccc(C#CCCCCC(=O)NCc2ccc(O)c(OC)c2)cc1 | % | 28
COc1cc(CNC(=O)CCCC/C=C/C(C)C)ccc1O | % | 96
COc1cc(CNC(=O)CCCCC#Cc2ccc([N+](=O)[O-])cc2)ccc1O | % | 41
COc1cc(CNC(=O)CCCCC#Cc2cccc3ccccc23)ccc1O | % | 48
C#CCCCCC(=O)NCc1ccc(O)c(OC)c1 | % | 96
Cc1[nH]c(/C=C2\C(=O)Nc3ccc(Br)cc32)c(C)c1CCC(=O)O [SU9518, reference compound] | % | 33
COc1cc(CNC(=O)CCCCC#Cc2ccccc2)ccc1O | % | 35

###

The entries below come with measured Clonogenic Survival Assay (percent) values attached.
tested on: human bronchial epithelial cells; assay: Clonogenic cell survival assay, bronchial epithelial cells with PDGF-AB (Example 4); format: cell-based; settings: 1.00 uM; 10 ng/ml PDGF-AB; 14 days

molecule | experimental.system | units.text | Clonogenic Survival Assay (percent)
Cc1[nH]c(/C=C2\C(=O)Nc3ccc(Br)cc32)c(C)c1CCC(=O)O [SU9518, reference compound] | human bronchial epithelial cells | % | 59
C#CCCCCC(=O)NCc1ccc(O)c(OC)c1 | human bronchial epithelial cells | % | 99
COc1cc(CNC(=O)CCCCC#Cc2cccc3ccccc23)ccc1O | human bronchial epithelial cells | % | 61
COc1cc(CNC(=O)CCCCC#Cc2ccccc2)ccc1O | human bronchial epithelial cells | % | 41
COc1cc(CNC(=O)CCCCC#Cc2ccc([N+](=O)[O-])cc2)ccc1O | human bronchial epithelial cells | % | 51
COc1ccc(C#CCCCCC(=O)NCc2ccc(O)c(OC)c2)cc1 | human bronchial epithelial cells | % | 51
COc1cc(CNC(=O)CCCC/C=C/C(C)C)ccc1O | human bronchial epithelial cells | % | 95
COc1cc(CNC(=O)CCCCCCc2ccccc2)ccc1O | human bronchial epithelial cells | % | 97

###

system: human bronchial epithelial cells; assay: Proliferation assay, VEGF+bFGF-stimulated bronchial epithelial proliferation (Example 2); type: cell-based; settings: Homo sapiens, Epithelial cell; highest dose tested 10 uM; 72 hours; read-out: IC50, VEGF+bFGF-induced proliferation
pIC50: −log10 of the molar value.

compound | pIC50
COc1cc(CNC(=O)CCCCC#Cc2ccccc2)ccc1O [Compound 2] | < 5.00
